Entry source: ChEMBL document CHEMBL2331178

Reported CC50 at 72 h by item:
- EXPERIMENT SUMMARY: Cytotoxicity against human MT4 cells after 3 days by XTT assay
- Type: cell-based
Express the result in µM but write the number alone.

CC1CCCCC1Oc1cc(CCc2ccccc2)[nH]c(=O)c1Br (mixture of isomers) | 100
CC(C)c1c(O[C@H]2CCCC[C@H]2C)cc(CCc2ccccc2)[nH]c1=O (racemic) | 87.9
Cc1ccc(Cc2cc(OC3CCCCC3C)c(C(C)C)c(=O)[nH]2)cc1 (mixture of isomers) | 112
CC(C)c1c(OC2CCCCC2C)cc(CCc2ccccc2)[nH]c1=O (mixture of isomers) | 201
CC(C)c1c(OC2CCCCC2C)cc(Cc2ccc(Cl)cc2)[nH]c1=O (mixture of isomers) | 84

Prompt: Would you mind telling me what CC50 at 72 h value was observed for COc1ccc(Cc2cc(OC3CCCCC3C)c(C(C)C)c(=O)[nH]2)cc1 (mixture of isomers) ?
Response: 74.5

Prompt: Looking for the measured CC50 at 72 h of CC(C)c1c(OC2CCCCC2C)cc(Cc2ccc(F)cc2)[nH]c1=O (mixture of isomers) , can you help?
Response: 64.6

###

Entries below carry reported IC50 on Human immunodeficiency virus type 1 reverse transcriptase (Human immunodeficiency virus 1).
Output spec: scalar in nM, unitless text.

Recorded results for 3 molecules are shown here.
CC1CCCCC1Oc1cc(Cc2ccccc2)[nH]c(=O)c1 (mixture of isomers) | 59300
CC(C)c1c(OC2CCCCC2C)cc(Cc2ccc(Cl)cc2)[nH]c1=O (mixture of isomers) | 160
CC(C)c1c(OC2CCCCC2C)cc(Cc2ccc(F)cc2)[nH]c1=O (mixture of isomers) | 130

Prompt: Need IC50 of CC1CCCCC1Oc1cc(CCc2ccccc2)[nH]c(=O)c1Br (mixture of isomers) , thanks.
Response: 650

###

- Test system: Human immunodeficiency virus 1
- EXPERIMENT SUMMARY: Antiviral activity against NNRTI-resistant Human immunodeficiency virus 1 A17 double mutant infected in human MT4 cells assessed decrease in p24 level after 7 days by ELISA
- Assay type: functional, organism-based
- CONDITION DETAILS: Human immunodeficiency virus 1, A17, MT4, 168 h
MEASUREMENT LABEL: EC50 (µM)
Respond numerically; units are µM and should not be typed.

Prompt: Using the record for CC(C)c1c(OC2CCCCC2C)cc(Cc2ccc(Cl)cc2)[nH]c1=O (mixture of isomers) , report its EC50.
Response: 10.4

Prompt: Item CC1CCCCC1Oc1cc(CCc2ccccc2)[nH]c(=O)c1Br (mixture of isomers) has what recorded EC50?
Response: 4.32

Prompt: For the molecule shown here, CC(C)c1c(OC2CCCCC2C)cc(CCc2ccccc2)[nH]c1=O (mixture of isomers) , give the reported EC50.
Response: 2.75

Prompt: What does the record list as EC50 for CC1CCCCC1Oc1cc(CCc2ccccc2)[nH]c(=O)c1I (mixture of isomers) ?
Response: 0.281

Prompt: Look at this molecule and give its reported EC50. COc1ccc(Cc2cc(OC3CCCCC3C)c(C(C)C)c(=O)[nH]2)cc1 (mixture of isomers)
Response: 0.479

Prompt: Would you kindly share the measured EC50 for CC(C)c1c(O[C@H]2CCCC[C@@H]2C)cc(CCc2ccccc2)[nH]c1=O (racemic) ?
Response: 0.09

###

- Tested on: Human immunodeficiency virus 1
- EXPERIMENT SUMMARY: Antiviral activity against Human immunodeficiency virus 1 SF33 infected in human TZM-bl cells assessed decrease in p24 level after 7 days by ELISA
- Type: functional, organism-based
- CONDITION DETAILS: Human immunodeficiency virus 1, SF33, TZM-bl, 168 h
pEC50: −log10 of the molar value.
Short version: pEC50 at least 7 is Fulfilled, less is Not fulfilled.

Illustrative cases are given below, each with its answer.
CC1CCCCC1Oc1cc(CCc2ccccc2)[nH]c(=O)c1I (mixture of isomers) | Fulfilled
Cc1ccnc2c1NC(=O)c1cccnc1N2C1CC1 [NEVIRAPINE] | Not fulfilled
CC(C)c1c(O[C@H]2CCCC[C@@H]2C)cc(CCc2ccccc2)[nH]c1=O (racemic) | Fulfilled

Prompt: Dear colleague, could you confirm whether Cc1ccc(Cc2cc(OC3CCCCC3C)c(C(C)C)c(=O)[nH]2)cc1 (mixture of isomers) has pEC50 at or above 7?
Response: Fulfilled

Prompt: Hi team, for CC(C)c1c(Cc2ccccc2)n(COCc2ccccc2)c(=O)[nH]c1=O , is the recorded pEC50 at or above 7?
Response: Fulfilled

###

Consider molecules characterized by their IC50 with Human immunodeficiency virus type 1 reverse transcriptase (Human immunodeficiency virus 1).

Consider the reported IC50 for these molecules:
CC1CCCCC1Oc1cc(CCc2ccccc2)[nH]c(=O)c1I (mixture of isomers) | 150 nM
CCOC(=O)c1c(OC2CCC(C)CC2)cc(Cc2ccccc2)[nH]c1=O (mixture of isomers) | 32900 nM
Cc1ccc(Cc2cc(OC3CCCCC3C)c(C(C)C)c(=O)[nH]2)cc1 (mixture of isomers) | 59 nM
CCOC(=O)c1c(OC2C(C)CCCC2C)cc(Cc2ccccc2)[nH]c1=O (mixture of isomers) | 37100 nM
CC(C)c1c(O[C@H]2CCCC[C@H]2C)cc(CCc2ccccc2)[nH]c1=O (racemic) | 1310 nM

Prompt: Given CC(C)c1c(Cc2ccccc2)n(COCc2ccccc2)c(=O)[nH]c1=O , state its recorded IC50.
Response: 88 nM

Prompt: Entry under review: CCOC(=O)c1c(OC2CCCCC2Cl)cc(Cc2ccccc2)[nH]c1=O (mixture of isomers) . Reported IC50?
Response: > 100000 nM

Prompt: Report IC50 for CCOC(=O)c1c(OC2CCCCC2C)cc(Cc2ccccc2)[nH]c1=O (mixture of isomers) please.
Response: 5290 nM

Prompt: Report IC50 for CCOC(=O)c1c(OC2CC(C)CC(C)(C)C2)cc(Cc2ccccc2)[nH]c1=O (mixture of isomers) please.
Response: > 100000 nM

Prompt: IC50 lookup needed for COc1ccc(Cc2cc(OC3CCCCC3C)c(C(C)C)c(=O)[nH]2)cc1 (mixture of isomers) , thanks.
Response: 33 nM

Prompt: Give the measured IC50 of CC1CCCCC1Oc1cc(Cc2ccccc2)[nH]c(=O)c1Br (mixture of isomers) .
Response: 1210 nM

Prompt: Please look up its IC50: CC(C)c1c(O[C@H]2CCCC[C@@H]2C)cc(CCc2ccccc2)[nH]c1=O (racemic)
Response: 3 nM

###

Recorded pEC50 for the following compounds
- Tested on: Human immunodeficiency virus 1
- EXPERIMENT SUMMARY: Antiviral activity against NNRTI-resistant Human immunodeficiency virus 1 harboring reverse transcriptase K103N mutation infected in human MT4 cells assessed decrease in p24 level after 7 days by ELISA
- Type: functional, organism-based
- CONDITION DETAILS: Human immunodeficiency virus 1, MT4, 168 h
Please keep in mind that pEC50 is minus log10 of the molar concentration; only the number is needed.

Guide cases for pEC50, answers given:
CC(C)c1c(Cc2ccccc2)n(COCc2ccccc2)c(=O)[nH]c1=O | 5.62
CC1CCCCC1Oc1cc(CCc2ccccc2)[nH]c(=O)c1I (mixture of isomers) | 7.77

Prompt: Could you share which pEC50 value was measured for CC(C)c1c(O[C@H]2CCCC[C@@H]2C)cc(CCc2ccccc2)[nH]c1=O (racemic) ?
Response: 7.74

###

Here, each record is paired with measured selectivity ratio data.
- EXPERIMENT SUMMARY: Selectivity index, ratio of CC50 for human TZM-bl cells to EC50 for Human immunodeficiency virus 1 A17 infected in human TZM-bl cells
- Assay type: toxicity, cell-based
- CONDITION DETAILS: read-out: Ratio CC50/EC50

CC(C)c1c(OC2CCCCC2C)cc(Cc2ccc(Cl)cc2)[nH]c1=O (mixture of isomers) | < 10
CC(C)c1c(Cc2ccccc2)n(COCc2ccccc2)c(=O)[nH]c1=O | < 6
CC(C)c1c(OC2CCCCC2C)cc(CCc2ccccc2)[nH]c1=O (mixture of isomers) | 191
Cc1ccc(Cc2cc(OC3CCCCC3C)c(C(C)C)c(=O)[nH]2)cc1 (mixture of isomers) | < 9
CC(C)c1c(O[C@H]2CCCC[C@@H]2C)cc(CCc2ccccc2)[nH]c1=O (racemic) | 2160
CC1CCCCC1Oc1cc(CCc2ccccc2)[nH]c(=O)c1Br (mixture of isomers) | < 8
COc1ccc(Cc2cc(OC3CCCCC3C)c(C(C)C)c(=O)[nH]2)cc1 (mixture of isomers) | < 13
CC(C)c1c(O[C@H]2CCCC[C@H]2C)cc(CCc2ccccc2)[nH]c1=O (racemic) | < 18

Prompt: Form field: reported selectivity ratio of CC1CCCCC1Oc1cc(CCc2ccccc2)[nH]c(=O)c1I (mixture of isomers)
Response: 307

Prompt: Reported selectivity ratio for CC(C)c1c(OC2CCCCC2C)cc(Cc2ccc(F)cc2)[nH]c1=O (mixture of isomers) : what is it?
Response: < 7
